Below: a set of entries, each annotated with reported EC50.
- Target: T1, CEACAM5 (R&D Systems, 4128-CM-050) (human, UniProt P06731 35-685)
- T1 construct: Immobilised on the ELISA plate; also called human CEACAM5
- T1 sequence (looked up): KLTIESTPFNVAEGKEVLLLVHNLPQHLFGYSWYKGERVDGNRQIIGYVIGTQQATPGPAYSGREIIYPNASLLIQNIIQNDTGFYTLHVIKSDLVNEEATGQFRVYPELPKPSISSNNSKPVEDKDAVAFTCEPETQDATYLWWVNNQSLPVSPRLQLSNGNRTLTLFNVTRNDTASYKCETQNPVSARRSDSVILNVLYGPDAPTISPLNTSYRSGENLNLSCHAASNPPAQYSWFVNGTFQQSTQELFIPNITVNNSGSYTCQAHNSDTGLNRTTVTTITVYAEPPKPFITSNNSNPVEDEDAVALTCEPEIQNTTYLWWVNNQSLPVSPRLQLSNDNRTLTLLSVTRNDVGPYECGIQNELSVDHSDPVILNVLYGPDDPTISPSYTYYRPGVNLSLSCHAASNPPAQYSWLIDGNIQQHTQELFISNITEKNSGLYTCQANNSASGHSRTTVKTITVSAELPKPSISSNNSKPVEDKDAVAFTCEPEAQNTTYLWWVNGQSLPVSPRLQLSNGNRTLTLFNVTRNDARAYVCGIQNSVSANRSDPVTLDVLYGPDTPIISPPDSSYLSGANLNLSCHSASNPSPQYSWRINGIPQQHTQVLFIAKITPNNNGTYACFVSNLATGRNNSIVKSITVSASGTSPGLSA
- Assay remarks: ELISA on immobilised CEACAM5, 4-parameter fit, duplicate
Just the number in pM, nothing appended.

>  <Binder>
(Y-S1-X)p-Fab^2 with Y Gd/DOTA, S1 - (bond), X -Gly-Lys*-Z2(#N)- (Fab, V domains shown, labeling may sit on this chain; sites not stated; labeling portion (MW 825) on amino groups of the Fab, sites and chain not stated; 1-3 per Fab by MS, also called Ex-No 20; conjugate 20) VH: EVQLVESGGGLVQPGGSLRLSCAASGFNIRDTYMHWVRQAPGKGLEWVARIDPANGNSRYVPKFQGRFTISADTSRNTAYLQMNSLRAEDTAVYYCAPFGYYVSDYAMAYWGQGTLVTVSS VL: DIQLTQSPSSLSASVGDRVTITCRAGESVDIFGVGFLHWYQQKPGKAPKLLIYRASNLESGIPSRFSGSGSRTDFTLTISSLQPEDFATYYCQQTNEDPYTFGQGTKVEIKR

>  <EC50, pM>
220

$$$$

-- ask What value of measured EC50 is listed for [Gd/DOTA-NH-CH2-(1,3-Ph)-C(═O)-Met-Gly-Lys*-Z2(#N)]p-Fab^2 (Fab, V domains shown, labeling may sit on this chain; sites not stated; labeling portion (MW 1089) on amino groups of the Fab, sites and chain not stated; 1-3 per Fab by MS, also called Ex-No 13; Conjugate No. 13) VH: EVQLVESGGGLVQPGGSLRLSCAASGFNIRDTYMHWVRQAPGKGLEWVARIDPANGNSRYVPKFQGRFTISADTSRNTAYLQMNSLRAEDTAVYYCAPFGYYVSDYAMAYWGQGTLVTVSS VL: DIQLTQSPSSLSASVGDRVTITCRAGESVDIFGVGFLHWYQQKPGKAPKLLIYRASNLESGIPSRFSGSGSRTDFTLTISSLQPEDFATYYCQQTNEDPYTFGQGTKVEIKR ?
-- reply 140

-- ask What value of measured EC50 is listed for [Gd/DOTA-NH-(CH2CH2O)3-CH2-C(═O)-NH-CH2-(1,3-Ph)-C(═O)-Met-Gly-Lys*-Z2(#N)]p-Fab^2 (Fab, V domains shown, labeling may sit on this chain; sites not stated; labeling portion (MW 1278) on amino groups of the Fab, sites and chain not stated; 1-2 per Fab by MS, also called Ex-No 29; Conjugate No. 29) VH: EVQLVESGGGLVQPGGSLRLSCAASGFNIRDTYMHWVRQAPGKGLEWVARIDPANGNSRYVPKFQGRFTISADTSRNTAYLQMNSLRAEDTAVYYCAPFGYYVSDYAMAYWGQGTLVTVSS VL: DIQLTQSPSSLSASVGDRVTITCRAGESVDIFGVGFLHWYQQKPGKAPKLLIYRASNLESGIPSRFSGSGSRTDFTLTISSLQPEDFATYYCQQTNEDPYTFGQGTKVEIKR ?
-- reply 300
